Every entry's value here was drawn from paper PMC12369479.

target entity: ZmADK2 (Zea mays, UniProt B4FFH8, T4S)
Sequence (B4FFH8 1-342 T4S): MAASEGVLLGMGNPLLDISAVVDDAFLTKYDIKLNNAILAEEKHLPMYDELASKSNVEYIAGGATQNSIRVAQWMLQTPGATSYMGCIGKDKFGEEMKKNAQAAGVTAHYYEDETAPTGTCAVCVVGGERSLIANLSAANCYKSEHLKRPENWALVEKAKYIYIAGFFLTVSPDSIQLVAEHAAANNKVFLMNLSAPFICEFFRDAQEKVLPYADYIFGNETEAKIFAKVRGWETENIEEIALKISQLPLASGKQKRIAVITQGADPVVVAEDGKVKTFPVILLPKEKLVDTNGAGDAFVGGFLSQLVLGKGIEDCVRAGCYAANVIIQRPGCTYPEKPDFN
test description: ADK activity, coupled reaction with PK and LDH
Format: biochemical
assay setup: ZmADK2; 10 mM ATP; pH 7.5; 30 °C
Binary classification by kcat, with 0.2 s^–1 as an inclusive lower bound for t; all other cases are f.

CC(C)CNc1ncnc2c1ncn2[C@@H]1O[C@H](CO)[C@@H](O)[C@H]1O [N ^6-IsobutylAdo] : t
CC(C)Nc1ncnc2c1ncn2[C@@H]1O[C@H](CO)[C@@H](O)[C@H]1O [N ^6-IsopropylAdo] : f
Nc1ncnc2c1ccn2[C@@H]1O[C@H](CO)[C@@H](O)[C@H]1O [7-DeazaAdo, tubercidin] : f
CNc1ncnc2c1ncn2[C@@H]1O[C@H](CO)[C@@H](O)[C@H]1O [N ^6-MethylAdo, 6-methylamino-9H-purine-9-β-D-riboside] : t
O=c1ccn([C@@H]2O[C@H](CO)[C@@H](O)[C@H]2O)c(=O)[nH]1 [Uridine] : f
Nc1ncnc2c1ncn2C1CC(O)C(CO)O1 (stereo not shown) [2′-DeoxyAdo] : t

----------
target entity: ZmADK2 (Zea mays, UniProt B4FFH8, T4S)
test description: Binding affinity by microscale thermophoresis (MST)
assay setup: KD, MST, 50 mM HEPES pH 7.5, 1 mM MgCl2, first or only binding event
Property: Kd; scope: individual molecules
property name: Kd (µM)

Nc1ncnc2c1ncn2[C@@H]1O[C@H](CO)C[C@H]1O [3′-DeoxyAdo, cordycepin] : 175
CC(C)=CCNc1ncnc2c1ncn2C1OC(CO)C(O)C1O (centres unmarked) : 4.8
Nc1nc2c(ncn2[C@@H]2O[C@H](CO)[C@@H](O)[C@H]2O)c(=O)[nH]1 : 217
OC[C@H]1O[C@@H](n2cnc3c(O)ncnc32)[C@H](O)[C@@H]1O : 440
Nc1ccn([C@@H]2O[C@H](CO)[C@@H](O)[C@H]2O)c(=O)n1 : 286
O=c1[nH]c(=O)c2ncn([C@@H]3O[C@H](CO)[C@@H](O)[C@H]3O)c2[nH]1 : 166

----------
target entity: PpADK1 (Physcomitrium patens, UniProt O49923)
Construct: made in house; host or cells: E. coli T7 Express Iq
Sequence (O49923 whole entry): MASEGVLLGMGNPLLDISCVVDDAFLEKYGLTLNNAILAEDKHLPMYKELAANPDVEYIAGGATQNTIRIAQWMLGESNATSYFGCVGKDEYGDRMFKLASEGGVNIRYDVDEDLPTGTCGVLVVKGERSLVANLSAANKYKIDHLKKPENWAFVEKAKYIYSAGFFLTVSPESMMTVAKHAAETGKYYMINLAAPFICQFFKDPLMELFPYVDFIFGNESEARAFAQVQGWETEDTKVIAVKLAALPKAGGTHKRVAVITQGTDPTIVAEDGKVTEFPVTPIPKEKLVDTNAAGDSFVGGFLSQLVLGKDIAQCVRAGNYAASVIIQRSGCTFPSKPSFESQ
test description: Binding affinity by microscale thermophoresis (MST)
Design: species or system Physcomitrella patens
assay setup: 50 mM HEPES pH 7.5, 1 mM MgCl2, read-out: KD
pKd: −log10 of the molar value.
property name: pKd

Nc1ncnc2c1ncn2[C@@H]1O[C@H](COP(=O)(O)OP(=O)(O)OP(=O)(O)O)[C@@H](O)[C@H]1O [ATP] : 2.54

----------
target entity: ZmADK2 (Zea mays, UniProt B4FFH8, T4S)
test description: Binding affinity by microscale thermophoresis (MST)
assay setup: KD, MST, 50 mM HEPES pH 7.5, 1 mM MgCl2, first or only binding event
pKd: −log10 of the molar value.
Property: pKd; scope: individual compounds
property name: pKd

Nc1ncnc2c1ncn2[C@@H]1O[C@H](CO)[C@@H](O)[C@H]1O : 6.40
Nc1ncnc2c1ccn2[C@@H]1O[C@H](CO)[C@@H](O)[C@H]1O : 5.66
Nc1ncnc2c1ncn2C1OC(COP(=O)(O)O)C(O)C1O (stereo not drawn) : 3.61

----------
target entity: ZmADK2 and PpADK1
test description: Binding affinity by MST (summary for both enzymes)
Design: species or system Zea mays, Physcomitrella patens
assay setup: range over ZmADK2 and PpADK1
property name: Kd

Nc1ncnc2c1ncn2[C@@H]1O[C@H](CO)[C@@H](O)[C@H]1O : 0.4 to 0.7 µM

----------
target entity: ZmADK3 D19A variant (Zea mays, UniProt A0A1D6E5Z5, D19A)
Sequence (A0A1D6E5Z5 entry or part of it D19A): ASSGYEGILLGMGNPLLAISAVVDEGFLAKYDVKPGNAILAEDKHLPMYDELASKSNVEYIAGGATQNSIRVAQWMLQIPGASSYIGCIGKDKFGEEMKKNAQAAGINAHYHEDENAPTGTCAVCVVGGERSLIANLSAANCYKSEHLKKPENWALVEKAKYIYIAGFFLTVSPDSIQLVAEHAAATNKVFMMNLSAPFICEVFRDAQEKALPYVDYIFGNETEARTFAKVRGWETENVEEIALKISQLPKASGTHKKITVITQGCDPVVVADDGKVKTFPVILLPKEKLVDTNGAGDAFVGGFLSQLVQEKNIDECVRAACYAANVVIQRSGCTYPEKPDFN
test description: Binding affinity by MST
property name: Kd (µM)

Nc1ncnc2c1ncn2[C@@H]1O[C@H](CO)[C@@H](O)[C@H]1O [Ado, adenosine] : 989

----------
target entity: ZmADK3 D19A variant (Zea mays, UniProt A0A1D6E5Z5, D19A)
test description: Binding affinity by MST
assay setup: D19A; MST; read-out: KD ATP
pKd: −log10 of the molar value.
property name: pKd

Nc1ncnc2c1ncn2[C@@H]1O[C@H](COP(=O)(O)OP(=O)(O)OP(=O)(O)O)[C@@H](O)[C@H]1O [ATP] : 2.31

----------
target entity: ZmADK2 (Zea mays, UniProt B4FFH8, T4S)
test description: Binding affinity by microscale thermophoresis (MST)
assay setup: second KD value, KD(2), MST, second binding event (ATP site)
pKd: −log10 of the molar value.
property name: pKd

Nc1ncnc2c1ncn2[C@@H]1O[C@H](CO)[C@@H](O)[C@H]1O [Ado, adenosine] : ~2.82

----------
target entity: ZmADK2 (Zea mays, UniProt B4FFH8, T4S)
test description: Binding affinity by microscale thermophoresis (MST)
assay setup: MST, 50 mM HEPES pH 7.5, 1 mM MgCl2, read-out: KD
pKd: −log10 of the molar value.
property name: pKd

Nc1ncnc2c1ncn2[C@@H]1O[C@H](COP(=O)(O)OP(=O)(O)O)[C@@H](O)[C@H]1O : 1.99

----------
target entity: ZmADK2 (Zea mays, UniProt B4FFH8, T4S)
test description: ADK activity, coupled reaction with PK and LDH
Format: biochemical
assay setup: ZmADK2; 10 mM ATP; pH 7.5; 30 °C
Property: log10 of Km; scope: individual molecules
property name: log10 of Km (log10 of the value in µM)

CNc1ncnc2c1ncn2[C@@H]1O[C@H](CO)[C@@H](O)[C@H]1O [N ^6-MethylAdo, 6-methylamino-9H-purine-9-β-D-riboside] : 1.03
Nc1ncnc2c1ccn2[C@@H]1O[C@H](CO)[C@@H](O)[C@H]1O : 0.53
Nc1ncnc2c1ncn2C1CC(O)C(CO)O1 (stereo not shown) : 2.70
CN(C)c1ncnc2c1ncn2[C@@H]1O[C@H](CO)[C@@H](O)[C@H]1O : 1.05
CC(C)Nc1ncnc2c1ncn2[C@@H]1O[C@H](CO)[C@@H](O)[C@H]1O : 1.74
CC(C)CNc1ncnc2c1ncn2[C@@H]1O[C@H](CO)[C@@H](O)[C@H]1O : 1.85

----------
target entity: PpADK1 (Physcomitrium patens)
Construct: made in house; host or cells: E. coli T7 Express Iq
test description: ADK activity, coupled reaction with PK and LDH
Type: biochemical, Physcomitrella patens
assay setup: 100 µM substrate, 10 mM ATP, pH 7.5, 30 °C
Binary classification by Specific activity, with 0.9 nmol s^–1 mg^–1 as an inclusive lower bound for 1; all other cases are 0.

CC(C)Nc1ncnc2c1ncn2[C@@H]1O[C@H](CO)[C@@H](O)[C@H]1O [N ^6-IsopropylAdo] : 1
Nc1ncnc2c1ncn2[C@@H]1O[C@H](CO)[C@@H](O)[C@H]1O [Ado, adenosine] : 1
OC[C@H]1O[C@@H](n2cnc3c(NCc4ccccc4)ncnc32)[C@H](O)[C@@H]1O [BAPR, 6-benzylaminopurine riboside] : 0
CC(C)=CCNc1ncnc2c1ncn2C1OC(CO)C(O)C1O (centres unmarked) [iPR, N ^6-isopentenyl adenosine] : 1
C/C(=C\CNc1ncnc2c1ncn2[C@@H]1O[C@H](CO)[C@@H](O)[C@H]1O)CO (relative stereo) [tZR, trans-zeatin riboside] : 0

----------
Property: pKd; scope: individual compounds
target entity: ZmADK2 (Zea mays, UniProt B4FFH8, T4S)
test description: Binding affinity by microscale thermophoresis (MST)
assay setup: MST, 50 mM HEPES pH 7.5, 1 mM MgCl2, first or only binding event, read-out: KD
pKd: −log10 of the molar value.
property name: pKd

Nc1ncnc2c1ncn2C1CC(O)C(CO)O1 (stereo not shown) : 3.30
CN(C)c1ncnc2c1ncn2[C@@H]1O[C@H](CO)[C@@H](O)[C@H]1O : 4.91
CNc1ncnc2c1ncn2[C@@H]1O[C@H](CO)[C@@H](O)[C@H]1O [N ^6-MethylAdo, 6-methylamino-9H-purine-9-β-D-riboside] : 5.06
CC(C)Nc1ncnc2c1ncn2[C@@H]1O[C@H](CO)[C@@H](O)[C@H]1O : 4.28
Nc1ncnc2c1ncn2[C@@H]1O[C@H](COP(=O)(O)OP(=O)(O)OP(=O)(O)O)[C@@H](O)[C@H]1O : 2.66
CC(C)CNc1ncnc2c1ncn2[C@@H]1O[C@H](CO)[C@@H](O)[C@H]1O : 4.34
Nc1ncnc2c1ncn2[C@@H]1O[C@H](COP(=O)(O)OP(=O)(O)OP(=O)(O)OP(=O)(O)OP(=O)(O)OC[C@H]2O[C@@H](n3cnc4c(N)ncnc43)[C@H](O)[C@@H]2O)[C@@H](O)[C@H]1O [AP5A, diadenosine pentaphosphate] : 4.84

----------
target entity: ZmADK3 R132A variant (Zea mays, UniProt A0A1D6E5Z5, R132A)
Sequence (A0A1D6E5Z5 entry or part of it R132A): as the sequence (A0A1D6E5Z5 entry or part of it D19A) above, with A18D, R131A counted along it
test description: Binding affinity by MST
pKd: −log10 of the molar value.
property name: pKd

Nc1ncnc2c1ncn2[C@@H]1O[C@H](CO)[C@@H](O)[C@H]1O : 6.57
